Items are presented alongside their recorded TGI.
# Test system: OVCAR-8 ovarian
# protocolText: NCI tumour cell line growth inhibition, 48 h
observationType: TGI

>>> measuredresult("C=C(CO[Si](C)(C)C(C)(C)C)C(C)=O")
"37.5 µM"
>>> measuredresult("CN(C)c1nc2oc(-c3ccccc3)c(-c3ccccc3)c2c2nnnn12")
"> 100 µM"
>>> measuredresult("CC1(C)CC(=O)c2c(nc3ccc4ccccc4c3c2-c2ccc(NC(=O)CCCCCCCCC(=O)Nc3ccc(-c4c5c(nc6ccc7ccccc7c46)CC(C)(C)CC5=O)cc3)cc2)C1")
"> 100 µM"
>>> measuredresult("CC(C)(O)CC(=O)NCCn1ccc2ncnc(Nc3ccc(Oc4cccc(C(F)(F)F)c4)c(Cl)c3)c21")
"> 10 µM"
>>> measuredresult("CN(C(=O)c1ccco1)C(=S)N1CCN(c2ccccc2)CC1")
"> 100 µM"
>>> measuredresult("NC(=O)c1c(NC(=O)c2ccc3c(c2)OCO3)sc2c1CCC(=O)C2")
"> 100 µM"
>>> measuredresult("COc1ccc(/C=C2\\S/C(=N/Nc3nc(-c4ccccc4)cs3)NC2=O)cc1OC")
"47.5 µM"
>>> measuredresult("CC(C)(Oc1ccc(Cl)cc1)C(=O)N(C(=O)N1CCC(c2ccccc2)CC1)c1ccccc1")
"> 100 µM"
>>> measuredresult("c1cn(C23C4C5C6C4C2C6C53)cn1 (stereo not given)")
"> 100 µM"
>>> measuredresult("O=C1C(=O)c2ccccc2C(O)=C1CCCc1ccc(Oc2ccccc2)cc1")
"> 100 µM"

---

Items are presented alongside their recorded TGI.
# System: SK-MEL-5 melanoma
# protocolText: NCI tumour cell line growth inhibition, 48 h
observationType: TGI (µM)

>>> measuredresult("C1=C2/CC[C@H](Sc3ccccc3)[C@H]2C2(CCCCC/1)OCCO2")
59.1
>>> measuredresult("COC(=O)c1cc2ccc(OC(C)=O)c(OC(C)=O)c2cn1")
30.3
>>> measuredresult("C/C=C(\\C)C(=O)O[C@H]1C=CC(=O)O[C@@H]1CC[C@H](O)[C@H](C)O")
75.2
>>> measuredresult("COC(=O)C1=C(c2cc(OC)c(OC)c(OC)c2)OC(c2ccc(OC)c(OC)c2)C1 (stereo not given)")
93.7
>>> measuredresult("COc1cc2c(cc1OC)C(Cl)C(c1ccc(Cl)c(Cl)c1)=C2Cl (stereo not given)")
19.8
>>> measuredresult("CC(C)(Oc1ccc(Cl)cc1)C(=O)N(C(=O)N1CCC(c2ccccc2)CC1)c1ccccc1")
65.8
>>> measuredresult("C[C@H]1C[C@H]2[C@@H]3C(C)(C)O[C@]4(O)C(=O)[C@]5(O)[C@@H](C)CC[C@H]1[C@]25C(=O)[C@]34C")
81.7
>>> measuredresult("COc1ccc(C(C#N)Cc2cc(OC)c(OC)c(OC)c2)cc1 (stereo not given)")
37.3

---

# System: SK-OV-3 ovarian
# protocolText: NCI tumour cell line growth inhibition, 48 h
observationType: GI50

>>> measuredresult("O=C(NN1C(=O)CSC12CCCC2)c1[nH]c2ccc(Br)cc2c1-c1ccccc1")
"> 100 µM"
>>> measuredresult("O=C(Nc1ccc(Cl)cc1)Nc1ccc(Nc2nncc3ccccc23)cc1")
"3.05 µM"
>>> measuredresult("Cc1ccc(S(=O)(=O)Nc2cccc3[nH]c(C(F)(F)F)nc23)cc1")
"1.34 µM"
>>> measuredresult("O=C1c2ccccc2-c2c1c1ccccc1c(=O)n2CCN1CCOCC1")
"> 100 µM"
>>> measuredresult("O=C(Nc1cccc(NC(=O)Nc2cc(C(F)(F)F)ccc2Cl)c1)Nc1cc(C(F)(F)F)ccc1Cl")
"2.9 µM"
>>> measuredresult("C[C@@H]1CC[C@H]2C(C(O)CCCCC(O)C3=C(C(F)(F)F)O[C@@H]4O[C@@]5(C)CC[C@H]6[C@H](C)CC[C@@H]3[C@@]46OO5)=C(C(F)(F)F)O[C@@H]3O[C@@]4(C)CC[C@@H]1[C@]32OO4 (stereo partly specified)")
"> 100 µM"

---

# Tested on: M19-MEL melanoma
# protocolText: NCI tumour cell line growth inhibition, 48 h
Items are presented alongside their recorded TGI.
observationType: TGI

>>> measuredresult("COc1c2c(nc3ccccc13)-c1cc3c(c(=O)n1C2)COC(=O)C3(O)CC(=O)N1CCOCC1 (stereo not drawn)")
"44.8 µM"
>>> measuredresult("COc1c(Cl)cc(NC(=S)C#N)cc1Cl")
"50.2 µM"
>>> measuredresult("CN(C(=O)c1ccco1)C(=S)N1CCN(c2ccccc2)CC1")
"> 100 µM"
>>> measuredresult("Cc1[nH]c2ccccc2c1C1Cc2ccccc2N1C(=O)/C=C/C(=O)O (stereo not drawn)")
"> 100 µM"
>>> measuredresult("COc1cc2c(cc1OC)C(Cl)C(c1ccc(Cl)c(Cl)c1)=C2Cl (stereo not drawn)")
"32.2 µM"
>>> measuredresult("O=S1(=O)OCCOS(=O)(=O)C1Cc1ccccc1")
"> 100 µM"
>>> measuredresult("COc1cc(C(C)c2cc3c(cc2OCCO)OCO3)cc(OC)c1OC (stereo not drawn)")
"> 100 µM"
>>> measuredresult("O=C1C(=O)c2ccccc2C(O)=C1CCCc1ccc(Oc2ccccc2)cc1")
"37.9 µM"
>>> measuredresult("COc1cc(C2C(Cl)C(=O)N2NC(=O)c2ccc(N)cc2)ccc1O (stereo not drawn)")
"> 100 µM"
>>> measuredresult("COc1cc2cc[n+]3c(C)c4cc(OC)c(OC)cc4c([O-])c3c2cc1OC")
"> 100 µM"
>>> measuredresult("CCOC(=O)NC(=O)c1cn(CCN2CCN(c3ncnc4nc[nH]c34)CC2)c(=O)[nH]c1=O")
"> 100 µM"
>>> measuredresult("C1=C2/CC[C@H](Sc3ccccc3)[C@H]2C2(CCCCC/1)OCCO2")
"67 µM"
>>> measuredresult("COC(=O)C1=C(c2cc(OC)c(OC)c(OC)c2)OC(c2ccc(OC)c(OC)c2)C1 (stereo not drawn)")
"> 100 µM"

---

# System: A498 renal
# protocolText: NCI tumour cell line growth inhibition, 48 h
observationType: TGI

>>> measuredresult("Cc1ccc(S(=O)(=O)Nc2cccc3[nH]c(C(F)(F)F)nc23)cc1")
"1.82 µM"
>>> measuredresult("O=C(Nc1nc2ccccc2s1)c1cc([N+](=O)[O-])ccc1Cl")
"> 100 µM"
>>> measuredresult("O=C(NN1C(=O)CSC12CCCC2)c1[nH]c2ccc(Br)cc2c1-c1ccccc1")
"> 100 µM"
>>> measuredresult("C/C=C(/COC(C)=O)C(=O)OC1C=C(C=O)C(C)(C)C=C1C (stereo not given)")
"> 100 µM"
>>> measuredresult("Cc1c2c(n(CCc3ccc(Cl)cc3)c1C)NC(c1ccccc1)C(C#N)S2(=O)=O (stereo not given)")
"> 100 µM"

---

# Test system: UACC-257 melanoma
# protocolText: NCI tumour cell line growth inhibition, 48 h
observationType: GI50

>>> measuredresult("Nc1[nH]nc2nc(-c3cccs3)cc(C(F)(F)F)c12")
"> 25 µM"
>>> measuredresult("C/C=C(\\C)C(=O)O[C@H]1C=CC(=O)O[C@@H]1CC[C@H](O)[C@H](C)O")
"80.9 µM"
>>> measuredresult("COc1cccc(-n2ncc3c(N/N=C/c4ccncc4)ncnc32)c1")
"> 25 µM"
>>> measuredresult("Cc1cc(N2CCCC2)nc(N(CCNc2ccnc3cc(Cl)ccc23)Cc2ccco2)n1")
"10.8 µM"
>>> measuredresult("Cc1ccc(CNc2c3ccccc3nc3cc(NC(=O)CCN4CCCC4)ccc23)cc1")
"1.69 µM"
>>> measuredresult("CCc1ccc(NC(=O)COC(=O)c2cc([N+](=O)[O-])ccc2Sc2nnnn2C)cc1")
"19.3 µM"
>>> measuredresult("O=C(Nc1cccc(NC(=O)Nc2cc(C(F)(F)F)ccc2Cl)c1)Nc1cc(C(F)(F)F)ccc1Cl")
"4.29 µM"

---

# Test system: HOP-62 NSCLC
# protocolText: NCI tumour cell line growth inhibition, 48 h; in the data active means GI50 below about 0.43 µM; inactive means the rest
Outcomes: label 1 = active, label 0 = inactive

>>> group("CC1(C)[C@@H](OC(N)=O)[C@H]2O[C@H]2[C@]2(CO)[C@H]3CC[C@]4(C)[C@@H](c5ccc(=O)oc5)[C@@H](Cl)C[C@]4(O)C3=CC[C@@H]12")
"label 1"
>>> group("CC(C)(O)CC(=O)NCCn1ccc2ncnc(Nc3ccc(Oc4cccc(C(F)(F)F)c4)c(Cl)c3)c21")
"label 0"
>>> group("O=[N+]([O-])c1cccc([As]=[As]c2cccc([N+](=O)[O-])c2)c1 (centres undefined)")
"label 1"
>>> group("CCN(CC)Cc1ccc(Nc2nccc(-c3cnn4ncccc34)n2)cc1")
"label 1"

---

# Tested on: HOP-62 NSCLC
# protocolText: NCI tumour cell line growth inhibition, 48 h
observationType: TGI

>>> measuredresult("CN(/N=C/c1cccc2cccnc12)c1ccccc1")
"> 100 µM"
>>> measuredresult("COC(=O)[C@H]1CO[C@H]2C/C(C)=C/CC/C(C)=C/CC[C@@]3(C)O[C@@H]3C[C@H]21")
"> 50 µM"
>>> measuredresult("CC1CC/C(=C\\c2ccc(Cl)cc2)C2OC(N)=C(C#N)C(c3ccc(Cl)cc3)=C12 (stereo not given)")
"9.84 µM"
>>> measuredresult("CCOc1ccccc1N=Nc1c(C)[nH]n(-c2nc(-c3ccccc3)cs2)c1=O")
"> 100 µM"
>>> measuredresult("COc1ccc(C(=O)C(c2ccc(OC)cc2)C2(O)C(=O)Nc3c2ccc(Cl)c3C)cc1 (stereo not given)")
"> 100 µM"
>>> measuredresult("O=C(NC[C@H](O)CO)c1ccncc1Nc1ccc(I)cc1F")
"> 94 µM"
>>> measuredresult("COC(=O)C1=C(c2cc(OC)c(OC)c(OC)c2)OC(c2ccc(OC)c(OC)c2)C1 (stereo not given)")
"> 100 µM"
>>> measuredresult("Cc1[nH]c2ccccc2c1C1Cc2ccccc2N1C(=O)/C=C/C(=O)O (stereo not given)")
"> 100 µM"
>>> measuredresult("O=CN/C=C/c1ccc(O)c(O)c1")
"> 100 µM"
>>> measuredresult("CN(C)c1ccc2c(c1)OC(N)=C(C#N)C2c1ccc2c(c1)CCO2 (stereo not given)")
"> 76.7 µM"
